Target: Peroxisome proliferator-activated receptor gamma (Homo sapiens)
Sequence (P37231 whole entry): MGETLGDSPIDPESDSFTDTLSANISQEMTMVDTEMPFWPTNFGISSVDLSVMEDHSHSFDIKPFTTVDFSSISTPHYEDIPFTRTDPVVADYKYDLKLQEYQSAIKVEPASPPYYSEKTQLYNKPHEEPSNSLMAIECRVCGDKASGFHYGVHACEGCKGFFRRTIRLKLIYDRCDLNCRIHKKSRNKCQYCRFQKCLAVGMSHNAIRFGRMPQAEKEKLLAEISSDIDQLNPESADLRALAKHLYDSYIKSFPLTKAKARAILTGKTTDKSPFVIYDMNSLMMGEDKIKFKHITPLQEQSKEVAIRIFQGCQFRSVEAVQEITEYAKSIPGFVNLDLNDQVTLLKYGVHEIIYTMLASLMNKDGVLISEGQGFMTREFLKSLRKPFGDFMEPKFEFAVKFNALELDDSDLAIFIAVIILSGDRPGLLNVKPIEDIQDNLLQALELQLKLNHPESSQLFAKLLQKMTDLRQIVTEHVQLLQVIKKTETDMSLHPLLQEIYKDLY
Assay: Activity at PPARgamma receptor
pKi: −log10 of the molar value.
measure-name: pKi

Request: Would you kindly share the measured pKi for O=C(O)CCc1ccc(NCc2cccc(Oc3ccccc3)c2)cc1 ?
Result: < 5.50

###

Target: UniProt O14842
Test: Agonist activity at GPR40 receptor expressed in CHO cells by reporter gene assay
Type: functional, cell-based
measure-name: %max (%)
Hi! Could you send only the number? It should be in %, unit omitted.

Request: What does the record list as %max for O=C(O)CCc1ccc(NCc2cccc(Oc3ccccc3)c2)cc1 ?
Result: 69

Request: Proceed to CN(C)Cc1ccc(CNc2ccc(CCC(=O)O)cc2)cc1
Result: 12

Request: Could you do the same for O=C(O)CCc1ccc(NCc2ccc(Cl)cc2)cc1 , please?
Result: 111

Request: // query: CC(C(=O)O)c1ccc(NCc2ccc(-c3ccccc3)cc2)cc1 (centres undefined)
Result: 21

Request: Try O=C(O)CCc1ccc(NCc2ccc(C(=O)O)cc2)cc1 next.
Result: 9

Request: Try CC(C(=O)O)c1ccc(NCc2cccc(Oc3ccccc3)c2)cc1 (centres undefined) next.
Result: 34

Request: Please give the result for O=C(O)CCc1ccc(NCc2ccc(O)cc2)cc1 too.
Result: 37

Request: Okay, and O=C(O)CCc1ccc(NCc2ccccc2Cl)cc1 ?
Result: 122

Request: Queued: COc1ccc(CNc2ccc(CCC(=O)O)cc2)cc1
Result: 159

###

Biological target: UniProt:Q8TDS4
Sequence (Q8TDS4 whole entry): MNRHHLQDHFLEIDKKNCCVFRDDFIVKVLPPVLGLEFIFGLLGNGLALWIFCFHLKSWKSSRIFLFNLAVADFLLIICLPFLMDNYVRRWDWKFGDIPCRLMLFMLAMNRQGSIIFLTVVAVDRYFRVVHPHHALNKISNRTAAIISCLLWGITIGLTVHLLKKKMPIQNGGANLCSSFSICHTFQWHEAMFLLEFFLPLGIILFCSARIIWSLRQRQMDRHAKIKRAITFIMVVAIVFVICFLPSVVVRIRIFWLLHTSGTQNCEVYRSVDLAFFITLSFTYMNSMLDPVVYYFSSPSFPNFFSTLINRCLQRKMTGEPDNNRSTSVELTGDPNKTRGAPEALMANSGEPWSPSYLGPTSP
Test: Activity at HM74A receptor
pEC50: −log10 of the molar value.
measure-name: pEC50

Request: Please tell me: pEC50 of O=C(O)CCc1ccc(NCc2cccc(Oc3ccccc3)c2)cc1 [GW9508] , system UniProt:Q8TDS4?
Result: < 5.20

###

Test: Half life in iv dosed rat
Assay type: ADME, organism-based
Conditions: in vivo
measure-name: half-life (h)
Only the number, expressed in h, is required.

Request: For the compound O=C(O)CCc1ccc(NCc2cccc(Oc3ccccc3)c2)cc1 [GW9508] , what half-life is on record?
Result: 5.3

###

Biological target: Free fatty acid receptor 3 (Homo sapiens)
Sequence (O14843 whole entry): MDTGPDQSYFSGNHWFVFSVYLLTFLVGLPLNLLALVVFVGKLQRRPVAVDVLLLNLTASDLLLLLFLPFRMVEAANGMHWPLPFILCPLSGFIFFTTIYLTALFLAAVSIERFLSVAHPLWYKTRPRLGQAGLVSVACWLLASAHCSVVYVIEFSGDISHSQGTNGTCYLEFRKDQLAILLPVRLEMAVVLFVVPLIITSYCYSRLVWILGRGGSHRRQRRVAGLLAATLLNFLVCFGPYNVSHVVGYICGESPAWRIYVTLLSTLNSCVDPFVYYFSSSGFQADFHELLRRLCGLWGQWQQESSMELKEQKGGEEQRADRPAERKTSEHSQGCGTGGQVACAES
Assay: Activity at GPR41 receptor
measure-name: EC50

Request: Requested field: EC50. Item: O=C(O)CCc1ccc(NCc2cccc(Oc3ccccc3)c2)cc1
Result: > 50.1 µM

###

Assay: Permeability in MDCK cells expressing low Pgp
Assay type: ADME, cell-based, Canis lupus familiaris
Details: dog, MDCK type I; read-out: permeability
measure-name: Papp

Request: Entry under review: O=C(O)CCc1ccc(NCc2cccc(Oc3ccccc3)c2)cc1 . Reported Papp?
Result: 59.9 ×10⁻⁶ cm/s

###

Would you mind telling me the reported EC50 of each entry?
Target: Free fatty acid receptor 1 (Homo sapiens)
Sequence (O14842 whole entry): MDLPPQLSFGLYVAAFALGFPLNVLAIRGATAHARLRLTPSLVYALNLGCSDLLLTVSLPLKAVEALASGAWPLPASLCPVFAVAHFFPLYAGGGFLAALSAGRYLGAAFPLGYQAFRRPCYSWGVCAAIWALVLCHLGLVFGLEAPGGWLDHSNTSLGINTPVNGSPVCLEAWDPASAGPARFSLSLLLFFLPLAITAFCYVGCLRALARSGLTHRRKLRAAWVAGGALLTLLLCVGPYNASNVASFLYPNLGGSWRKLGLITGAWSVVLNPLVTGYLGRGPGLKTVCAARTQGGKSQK
Assay: Agonist activity at GPR40 receptor
The response must be a number in nM with no trailing unit.

Request: Item O=C(O)C1CC1c1ccc(NCc2ccc(-c3ccccc3)cc2)cc1 (configuration not stated) with Free fatty acid receptor 1 (Homo sapiens) - EC50?
Result: 39.8

Request: Try the compound O=C(O)CCc1ccc(NCc2ccc(Cl)c(Cl)c2)cc1
Result: 251

Request: // next record COc1ccc(CNc2ccc(CCC(=O)O)cc2)cc1
Result: 1260

Request: Same again, this time with O=C(O)CCc1ccc(NCc2cccc(F)c2)cc1
Result: 5010

Request: And what about the compound O=C(O)CCc1ccc(NCc2ccc(-c3ccccc3)cc2)cc1 ?
Result: 251

Request: Next record, please: O=C(O)CCc1ccc(NCc2ccc(Oc3ccccc3)cc2)cc1
Result: 195

Request: Now consider O=C(O)CCc1ccc(NCc2ccccc2Cl)cc1 .
Result: 3980

Request: Likewise for O=C(O)CCCc1ccc(NCc2cccc(Oc3ccccc3)c2)cc1 ?
Result: 3160

Request: Try O=C(O)CCCc1ccc(NCc2ccc(-c3ccccc3)cc2)cc1 next.
Result: 1580

Request: Try O=C(O)Cc1ccc(NCc2ccc(-c3ccccc3)cc2)cc1 next.
Result: 12300

Request: Another compound: O=C(O)CCc1ccc(NCc2cccc(Oc3ccccc3)c2)cc1 [GW9508]
Result: 79.4

Request: Now this one: CC(C(=O)O)c1ccc(NCc2cccc(Oc3ccccc3)c2)cc1 (configuration not stated)
Result: 16600
